Source of measurements: the OligoGym collection

molecular target: ERCC8; assay: pooled miR-30 sensor sort-seq; sequence = guide strand; conditions: shRNA; further: reference of the scale not given here
MEASUREMENT KIND: sensor-assay potency score (higher = more potent)
Please state the value as a number alone, without comment.

Take a look at these entries with their results.
TCTGTCTTTATTTAATTCCAGT    -1.2
TATAGTTCATAAAATCTGCTGA    0.347
TTGACTGAAATACACAGCAGTC    -0.992
TTTAATTGTGATTTTGTTGTAG    0.555

Incoming: Fill in the recorded sensor-assay potency score (higher = more potent) for this sequence, with ERCC8 as test system: TCACACCATCTGAACCACCTGA
Outgoing: 0.0366

Incoming: Again, but for TAAACTATACAGAAGTCTGTTT
Outgoing: -0.703

Incoming: Again, but for TTGAAAAAAACACAGTCTCATT
Outgoing: -1.3

Incoming: Again, but for TTTGACTGAAATACACAGCAGT
Outgoing: 0.0965
